Here, each record is paired with measured Neutralization of infectious viruses (IC50) data.
- System: H9 HA A/HK/1073/99 (on infectious virus) (influenza A virus A/HK/1073/99 (H9N2))
- Experimental details: cell-based or functional assay
Property: Neutralization of infectious viruses (IC50) (mg/L)

Binder: FE43 (antibody, V domains shown) VH: QVHLVQSGAEVKKPGSSVRLSCSASGGPFSGFAISWLRQAPGQGLEWLGGISAVFGTATYAQKFQGRVTITADQFTSTSHMDLSRLTYDDTAVYYCARSGGYLPQNNWIDPWGQGTLVIVSS VL: DIVMTQTPLSLSVTPGQPASISCKSSQSLLHSDGKTYLYWYLQKPGQSPQLLIYEVSNRFSGVPDRFSGSGSGTDFTLKISRVEAEDVGVYYCMQNILLPLTFGGGTKVEIK
Unit string: mg/L
Obs value: 50
//
Binder: FC6 (antibody, V domains shown) VH: QGQLVQSGAEVKKSGSSVKVSCKTSGGTFNSHAISWVRQAPGQGLEWIGGIIPMFGTTNYAQKLKGRIAITADQLPTTAYLELSSLRSEDTAVYYCARGQRYYYDRDGMDVWGQGTMVTVSS VL: EIVMTQTPLSLSVTPGQPASISCRSSQSLLHSDGKTYLYWYLQKPGQPPQLLISEVFNRFSGVPDRFSGSGSGTDFTLKISRVEAEDVGVYYCMQSLQLPLTFGGGTKVEIK
Unit string: mg/L
Obs value: 36
//
Binder: FB139 (antibody, V domains shown) VH: QVQLVQSGAEVKKAGSSVKVSCQSSGVTFSMYAVSWVRQAPGQGLEWMGGIIPLFGTTTYAQKFEGRLTITADTSTNMAYLELRSLRSEDTAVYFCARAGTTVTRFNWFDPWGQGTLVTVSS VL: EVVLTQSPGTLSLSPGQRATLSCRASQSVSSSYLAWYQQKPGQAPRLLIYDASNRATGIPDRFSGSGSGTDFTLTISRLEPEDFAVYYCQQYGSSPYTFGQGTKLEIK
Unit string: mg/L
Obs value: 20
//
Binder: FE53 (antibody, V domains shown) VH: QVQLVQSGAEVKKPGSSVKVSCKASGVTSSNYPITWVRQAPGQGLEWMGGVLPLFGVTNYAQKFQGRVTISADKSTNTAYMELSSLRSEDTAVYYCARGKRPGYCSGGVCSSDYWGQGTLVTVSS VL: DIQMTQSPSSLSASVGDRVSITCQASQDISRYLNWYQQKPGEAPKLLIYDASNLETGVPSRFSGSGSGTDFTFTISSLQPEDIATYFCQQYGYLPLTFGPGTKVDSK
Unit string: mg/L
Obs value: 8

FYI, the data here is from patent US20100086555A1.
